# protocol.notes: CCTE_Shafer_MEA_acute_cross_correlation_HWHM: CCTE's Neural Acute Assay for Cross Correlation at Half Width at Half Maximum, Shafer Lab (AID 2284026);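 also: percent change per well from pre-dose baseline in spike cross-correlogram half width; hits are a decrease in cross-correlogram half width relative to DMSO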
The source made the active and inactive calls. The calls were made as follows: active = hit-call score of the fitted dose curve at least 0.9, where 1 is the maximum; inactive = score below 0.9.
Bench note: report the call from t for active, f for inactive

-- ask Could you please tell me the result logged for "O=C1CCCN1CCO" in this assay?
-- reply f

-- ask Entry "Nc1ncn([C@@H]2O[C@H](CO)[C@@H](O)[C@H]2O)c(=O)n1" please
-- reply t

-- ask Try this molecule next: CCCCC(CC)COC(=O)c1ccccc1O (centres undefined)
-- reply f

-- ask Lookup CN1C(=O)N(C)C(O)C1O (centres undefined)
-- reply f

---

# protocol.notes: ATG_EGR_CIS: Attagene CIS-FACTORIAL HepG2 Assay for human Early Growth Response 1 (EGR1) (AID 2282938)
# experimental.parameters: HepG2 Attagene CIS-FACTORIAL EGR reporter mRNA; actives raise or lower the signal
Calls of active or inactive are those of the source. Rule for the calls: active = hit-call score of the fitted dose curve at least 0.9, where 1 is the maximum; inactive = score below 0.9.
One label from this list, please: active, inactive

Study these solved cases before continuing.
[[record]]
compound = "NC(=O)N=NC(N)=O"
class_label = "inactive"

[[record]]
compound = "Cc1ccc(C(C)(C)C)cc1"
class_label = "inactive"

[[record]]
compound = "CC(=O)OCc1ccco1"
class_label = "inactive"

[[record]]
compound = "Cc1ccc(N)c([N+](=O)[O-])c1"
class_label = "inactive"

[[record]]
compound = "O=Cc1ccc(CO)o1"
class_label = "inactive"


-- ask Hello, I am checking results. What call was entered for "CC1=Nc2ccc3ccccc3c2C1(C)C" ?
-- reply inactive

-- ask Also C=CCOCC(O)CCl (stereo not given) , if possible.
-- reply inactive

-- ask Next up: "COc1ccc(-c2coc3cc(O)ccc3c2=O)cc1"
-- reply inactive

-- ask What would you report for "CCOC(=O)Cc1cccc2ccccc12" ?
-- reply inactive

-- ask How about this compound: "C=CC(C)(C)C"
-- reply inactive

-- ask Continue with "CCN(CCO)c1cccc(C)c1"
-- reply inactive

---

# protocol.notes: CEETOX_H295R_ESTRADIOL: CeeTox H295R High-throughput Steroidogenesis Assay for Estradiol (AID 2283440);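 also: estradiol secreted into medium quantified by LC-MS/MS after dansyl derivatisation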
# experimental.parameters: actives raise or lower the signal
The source made the active and inactive calls. The calls were made as follows: active = hit-call score of the fitted dose curve at least 0.9, where 1 is the maximum; inactive = score below 0.9.
experimental.endpoint: outcome

[[record]]
smiles_str = "S=C(NC1CCCCC1)NC1CCCCC1"
test_result = "inactive"

[[record]]
smiles_str = "COCc1c(C(C)C)nc(C(C)C)c(/C=C/[C@@H](O)C[C@@H](O)CC(=O)O)c1-c1ccc(F)cc1"
test_result = "inactive"

[[record]]
smiles_str = "COc1ccc2nc(N)sc2c1"
test_result = "inactive"


---

# protocol.notes: BSK_3C_VCAM1: BioMAP Diversity Plus: 3C Assay for Vascular cell adhesion molecule 1 (VCAM1) Biomarker Activity (AID 2282999)
# experimental.parameters: BioMAP 3C HUVEC, VCAM1 ELISA, cytokine-stimulated; actives raise or lower the signal
Active and inactive are the calls of the source. The calls were made as follows: active = hit-call score of the fitted dose curve at least 0.9, where 1 is the maximum; inactive = score below 0.9.
Use one of these outcomes when replying: TRUE (active), FALSE (inactive)

Past entries and their recorded results:
[[record]]
compound = "C=CC=CC=CCCCCC"
class_label = "FALSE"

[[record]]
compound = "CC1OC1C1CCC2(C)OC2C1 (stereo not drawn)"
class_label = "FALSE"


-- ask # outcome recorded in this test, key = "c1ccc(-c2ccccn2)nc1"
-- reply FALSE

-- ask Same for "C/C=C\C/C=C/CCCCCCCCOC(C)=O"
-- reply TRUE

-- ask And what about the compound "CCO[Si](C)(OCC)OCC" ?
-- reply FALSE

---

# tgt: Nuclear receptor subfamily 1 group I member 2 (Homo sapiens)
# protocol.notes: ATG_PXR_TRANS: Attagene TRANS-FACTORIAL HepG2 Assay for human Pregnane X Receptor (PXR) (AID 2283008)
Results filed as inconclusive are left out. The source made the active and inactive calls. How the source made its calls: active means hit-call score of the fitted dose curve at least 0.9, where 1 is the maximum; inconclusive means response in the unintended direction; inactive means score below 0.9.
Thanks in advance; please answer with one of these: active, inactive

-- ask Query: recorded result category for CCCCCCC1(C)CCC(=O)O1 (configuration not stated) in this test
-- reply active

-- ask Let us now turn to "CCOC(=O)Cc1cccc2ccccc12"
-- reply inactive

-- ask Lookup "CCC(=O)Oc1ccc(/C(CC)=C(\CC)c2ccc(OC(=O)CC)cc2)cc1"
-- reply active

-- ask What about this molecule? C#CC1(O)CC[C@H]2[C@@H]3CCC4=CCCC[C@@H]4[C@H]3CC[C@@]21C (some centres not stated)
-- reply active

-- ask Now give it for O=S(=O)(O)CC(O)CCl (configuration not stated) too.
-- reply inactive

-- ask Also need "CCCCCCCCCCc1ccccc1" , thanks.
-- reply inactive

-- ask Entry to check: OC1OCCOC1O (configuration not stated)
-- reply inactive

---

# Read-out: Interleukin-8 (IL8), CXCL8 (gene 3576)
# protocol.notes: BSK_hDFCGF_IL8: BioMAP Diversity Plus: hDFCGF Assay for Interleukin-8 (IL8) Biomarker Activity (AID 2283058)
# experimental.parameters: primary human foreskin fibroblasts; actives raise or lower the signal
Activity calls are given as the source filed them. The calls were made as follows: active = hit-call score of the fitted dose curve at least 0.9, where 1 is the maximum; inactive = score below 0.9.
Bench note: report the call from yes (1) = active, no (0) = inactive

Previously resolved entries follow.
[[record]]
compound = "C=C[Si](OC(C)=O)(OC(C)=O)OC(C)=O"
class_label = "no (0)"

[[record]]
compound = "CCCCNc1ccc(NCCCC)c2c1C(=O)c1ccccc1C2=O"
class_label = "no (0)"

[[record]]
compound = "O=C1CCCN1CCO"
class_label = "no (0)"

[[record]]
compound = "C=CCOc1c(Br)cc(Br)cc1Br"
class_label = "no (0)"

[[record]]
compound = "O=Nc1ccc(O)cc1"
class_label = "no (0)"


-- ask Hey, what did the test say about "O=c1c2ccccc2oc2ccccc12" ?
-- reply no (0)

-- ask Same thing, different compound: "S=C(NC1CCCCC1)NC1CCCCC1"
-- reply no (0)

-- ask Item: "CCCCC/C=C\C/C=C\CCCCCCCC(=O)OC"
-- reply no (0)

-- ask And C=CC(=O)OCC(Br)CBr (stereo unspecified) ?
-- reply yes (1)

-- ask Try the compound CCCCC(CC)COCC1CO1 (stereo unspecified)
-- reply no (0)

-- ask How about "O=C(c1ccc(O)cc1)c1ccc(O)cc1O" ?
-- reply no (0)

-- ask Same read-out for "c1ccc2c(c1)ccc1ncccc12" ?
-- reply no (0)

---

# Read-out: Actin alpha 1 (ACTA1), ACTA1 (gene 58)
# protocol.notes: BSK_MyoF_ACTA1: BioMAP Diversity Plus: MyoF Assay for Actin alpha 1 (ACTA1) Biomarker Activity (AID 2284244)
# experimental.parameters: primary human lung fibroblasts
The source made the active and inactive calls. The calls were made as follows: active = hit-call score of the fitted dose curve at least 0.9, where 1 is the maximum; inactive = score below 0.9.
experimental.endpoint: AC50

[[record]]
compound = "CCCCCCCCCCCCCCCC[N+](C)(C)CC"
test_result = "0.757 µM (active)"

[[record]]
compound = "C=CCOCC(O)CCl (configuration not stated)"
test_result = "inactive"

[[record]]
compound = "CC(C)(c1cc(Br)c(OCCO)c(Br)c1)c1cc(Br)c(OCCO)c(Br)c1"
test_result = "10.7 µM (active)"

[[record]]
compound = "COc1ccc2nc(N)sc2c1"
test_result = "inactive"


For the 2 compounds below, give their AC50 values.
1. CCCCC(CC)COC(=O)c1ccccc1O (configuration not stated)
2. O=c1c2ccccc2oc2ccccc12

-- reply
1. inactive
2. inactive

Okay, here is my list. What is AC50 for each of these?
1. C#CC1(O)CC[C@H]2[C@@H]3CCC4=CCCC[C@@H]4[C@H]3CC[C@@]21C (some centres not stated)
2. S=C(NC1CCCCC1)NC1CCCCC1
3. N#[N+]c1ccc2c(S(=O)(=O)[O-])cccc2c1O
4. CC(C)C(=O)C(C)C
5. O=Nc1ccc(O)cc1
6. CCCCNc1ccc(NCCCC)c2c1C(=O)c1ccccc1C2=O

-- reply
1: 32.2 µM (active); 2: inactive; 3: inactive; 4: inactive; 5: inactive; 6: inactive

---

# protocol.notes: ATG_Ets_CIS: Attagene CIS-FACTORIAL HepG2 Assay for human Erythroblast Transformation Specific (ETS) (AID 2282941)
# experimental.parameters: HepG2 ETS cis-reporter transcription, actives raise or lower the signal
Activity calls are given as the source filed them. The calls were made as follows: active = hit-call score of the fitted dose curve at least 0.9, where 1 is the maximum; inactive = score below 0.9.
experimental.endpoint: outcome

Consider the following illustrative entries.
[[record]]
molecule = "C=C(C)C(=O)OCC(C)C"
test_result = "inactive"

[[record]]
molecule = "COC(=O)c1cc(Cl)ccc1[N+](=O)[O-]"
test_result = "inactive"

[[record]]
molecule = "CC(=O)OC(C)C"
test_result = "inactive"

[[record]]
molecule = "C=COCCCC"
test_result = "inactive"

[[record]]
molecule = "O=Cc1ccc(CO)o1"
test_result = "inactive"


I need outcome for every entry listed below, if you could help.
1. CCN(CC)c1ccc(C(=O)c2ccccc2C(=O)O)c(O)c1
2. CC(C)(C)c1ccc(OC(=O)c2ccccc2O)cc1
3. CCCCCC(C)O (stereo not given)
4. C=C[C@](C)(O)CC[C@@H]1[C@@]2(C)CCCC(C)(C)[C@@H]2CC[C@@]1(C)O
5. C=CCOCC(O)CCl (stereo not given)
6. OC1OCCOC1O (stereo not given)

-- reply
inactive
inactive
inactive
inactive
inactive
inactive

Give outcome for all molecules that follow.
1. Cc1cc(C)c(C(=O)O)c(C)c1
2. C(=CC=Nc1ccccc1)C=CNc1ccccc1
3. O=C(OCC1CCC2OC2C1)C1CCC2OC2C1 (stereo not given)
4. CN1C(=O)N(C)C(O)C1O (stereo not given)

-- reply
1. inactive
2. inactive
3. inactive
4. inactive

// provenance: PubChem BioAssay (EPA / NIEHS)
